- Test system: P-gp
- method.description: Bi-directional permeability study using Caco-2 cells
- assay.setup: human, Caco-2, pH 6, Papp A–B (mean), 1 μM, control
property.name: Papp A→B at 120 min, 1 μM (×10⁻⁶ cm/s)
Provide the reading as a plain figure in ×10⁻⁶ cm/s.

[in] Query (compound): C[C@H]1O[C@@H](O[C@H]2[C@@H](O)C[C@H](O[C@H]3[C@@H](O)C[C@H](O[C@H]4CC[C@@]5(C)[C@H](CC[C@@H]6[C@@H]5C[C@@H](O)[C@]5(C)[C@@H](C7=CC(=O)OC7)CC[C@]65O)C4)O[C@@H]3C)O[C@@H]2C)C[C@H](O)[C@@H]1O [digoxin, reference compound] ; field requested: Papp A→B at 120 min, 1 μM
[out] 3.1
